Cited source: PubChem BioAssay AID1195

Tested on: human maximum recommended daily dose, FDA database
assay name: DSSTox (FDAMDD) FDA Maximum (Recommended) Daily Dose Database
condition info: TherapeuticCategory: analgesic; antipyretic; hits give low values
observation type: maximum recommended daily dose (mmol/kg-bw/day)

{"compound": "CC(=O)Nc1ccc(O)cc1", "study target": "human maximum recommended daily dose, FDA database", "quantitative readout": 0.331}

====

Parameter: maximum recommended daily dose (mmol/kg-bw/day). Scope: all listed entries.
Test system: human maximum recommended daily dose, FDA database
assay name: DSSTox (FDAMDD) FDA Maximum (Recommended) Daily Dose Database
condition info: TherapeuticCategory: glucocorticoid; anti inflammatory; hits give low values
observation type: maximum recommended daily dose (mmol/kg-bw/day)

{"compound": "CCCCCCCCCCCCCCCC(=O)OCC(=O)[C@@]1(O)[C@H](C)C[C@H]2[C@@H]3CCC4=CC(=O)C=C[C@]4(C)[C@@]3(F)[C@@H](O)C[C@@]21C", "quantitative readout": 0.000238}
{"compound": "CC(=O)OCC(=O)[C@@]1(O)[C@H](C)C[C@H]2[C@@H]3CCC4=CC(=O)C=C[C@]4(C)[C@@]3(F)C(O)C[C@@]21C (stereo partly specified)", "quantitative readout": 0.000345}
{"compound": "C[C@@H]1C[C@H]2[C@@H]3CCC4=CC(=O)C=C[C@]4(C)[C@@]3(F)[C@@H](O)C[C@]2(C)[C@@]1(O)C(=O)CO", "quantitative readout": 0.000382}
{"compound": "CCCCC(=O)OCC(=O)[C@@]1(O)[C@H](C)C[C@H]2[C@@H]3CCC4=CC(=O)C=C[C@]4(C)[C@@]3(F)[C@@H](O)C[C@@]21C", "quantitative readout": 0.000315}
{"compound": "CC(=O)OCC(=O)[C@@]1(OC(=O)c2ccco2)[C@H](C)C[C@H]2[C@@H]3CCC4=CC(=O)C=C[C@]4(C)[C@@]3(F)[C@@H](O)C[C@@]21C", "quantitative readout": 0.000284}
{"compound": "CCC(=O)OCC(=O)[C@@]1(OC(=O)CC)[C@H](C)C[C@H]2[C@@H]3CCC4=CC(=O)C=C[C@]4(C)[C@@]3(F)[C@@H](O)C[C@@]21C", "quantitative readout": 0.000297}

====

System: human maximum recommended daily dose, FDA database
assay name: DSSTox (FDAMDD) FDA Maximum (Recommended) Daily Dose Database
condition info: TherapeuticCategory: antibacterial; hits give low values
Catalogue of maximum recommended daily dose (mmol/kg-bw/day) readings, one per entry.
observation type: maximum recommended daily dose (mmol/kg-bw/day)

{"compound": "NC[C@H]1O[C@H](O[C@H]2[C@H](O)[C@@H](O[C@H]3O[C@H](CO)[C@@H](O)[C@H](N)[C@H]3O)[C@H](N)C[C@@H]2N)[C@H](N)C[C@@H]1O", "quantitative readout": 0.0193}
{"compound": "CO[C@H]1/C=C/O[C@@]2(C)Oc3c(C)c(O)c4c(O)c(c(/C=N/N5CCN(C)CC5)c(O)c4c3C2=O)NC(=O)/C(C)=C\\C=C\\[C@H](C)[C@H](O)[C@@H](C)[C@@H](O)[C@@H](C)[C@H](OC(C)=O)[C@@H]1C", "quantitative readout": 0.0243}
{"compound": "CC[C@@H](CO)NCCN[C@@H](CC)CO", "quantitative readout": 0.122}
{"compound": "CC[C@H]1OC(=O)[C@H](C)[C@@H](O[C@H]2C[C@@](C)(OC)[C@@H](O)[C@H](C)O2)[C@H](C)[C@@H](O[C@@H]2O[C@H](C)C[C@H](N(C)C)[C@H]2OC(C)=O)[C@](C)(O)C[C@@H](C)C(=O)[C@H](C)[C@@H](O)[C@]1(C)O", "quantitative readout": 0.0629}
{"compound": "CCN1CCN(C(=O)N[C@@H](C(=O)N[C@@H]2C(=O)N3C(C(=O)O)=C(CSc4nnnn4C)CS[C@H]23)c2ccc(O)cc2)C(=O)C1=O", "quantitative readout": 0.31}
{"compound": "CC1(C)S[C@@H]2[C@H](N3C(=O)C(c4ccccc4)NC3(C)C)C(=O)N2[C@H]1C(=O)O (stereo partly specified)", "quantitative readout": 0.0855}
